Listed below: composite z-score values for each entry.
System: Neuregulin-1 EGF-like domain
Experiment: binders of neuregulin-1 EGF-like domain, primary screen, biochemical, small-molecule microarray, 635 nm fluorescence (AID 1081);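 further: binding of the protein to compounds printed on small-molecule microarray slides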
Details: small-molecule microarray binding, higher = more signal
A bare number is all that is needed in reply.

Would you please look over these solved cases?
COc1ccc(O[C@H]2C=C[C@@H](c3ccccc3)O[C@@H]2COC(=O)CCC(C)=NOC[C@@H](O)COCc2ccco2)cc1	-0.649
CCOC(=O)[C@H](Cc1ccccc1)NC(=O)CCC1CC(OC(=O)NCCc2ccc(F)cc2)CC2(CCCC(COC(=O)NCCC(C)C)O2)O1 (stereo partly drawn)	1.02
C[C@H]1CC[C@@H](C(=O)O)N[C@@H]1c1ccc(C#Cc2ccccc2)cc1	1.24
O=C1[C@H]2[C@H]3[C@H](O)[C@H](O)CC(=NOC[C@@H](O)COCc4ccco4)[C@@H]3CC[C@H]2C(=O)N1C1CCCCC1	1.2
CC(CCN1CCc2nc(-c3ccccc3)c(-c3ccccc3)cc2C1)=NOC(C)CN1CCCc2nc(C)c(C)cc21 (stereo not drawn)	1.08
CC(C)[C@@H](OCc1ccccc1)[C@H](C)C=NO[C@@H](C)c1cn([C@H](CO)Cc2ccccc2)nn1	-0.419
CC(C)(C)N1C(=O)[C@H]2[C@@H]3C(=CC[C@H]2C1=O)C(=O)[C@H]1O[C@H]1[C@H]3O	0.17

Noted for `CCN1C(=O)[C@H]2[C@@H]3C(=CC[C@H]2C1=O)C(=O)[C@H]1O[C@H]1[C@H]3O` : its composite z-score reads 0.73

* * *

Each entry below lists one item and its recorded composite z-score value.
Biological target: Fibroblast growth factor 10 (Homo sapiens)
Assay: FGF10 binders on small-molecule microarrays, primary screen, biochemical, small-molecule microarray, 635 nm fluorescence (AID 1102)
Details: FGF10 binding, fluorescence 635 nm, higher = more signal
API note: the answer field is a bare number with no unit suffix.

CC(CCC(=O)OC[C@H]1O[C@H](C#Cc2ccccc2)C=C[C@@H]1Oc1ccc(C)cc1)=NOC[C@@H](C)[C@H](OCc1ccccc1)C(C)C	-0.434
CCN(CC)CC(O)CN1CCCCc2nc(C)c(C)cc21 (stereo unspecified)	0.507
COc1ccc(O[C@H]2C=C[C@@H](c3ccccc3)O[C@@H]2CON=C(C)CCN2CCCc3nc(C)c(C)cc32)cc1	0.735
O=C1CCCC=C1C(O)COCc1ccccc1 (stereo unspecified)	-0.146
CC(=O)OC[C@H]1O[C@H](CC=NO[C@@H](C)c2cc(-c3c(C)cc(C)cc3C)no2)C=C[C@@H]1OC(C)=O	-0.151
CCCNC(=O)OC[C@H]1O[C@H](CCON=C[C@@H](NS(=O)(=O)c2ccc(C)cc2)[C@H](C)C=CCC(=O)OC)C=C[C@@H]1Oc1ccc(OC)cc1	-0.0511
CO[C@H]1COC(=O)CC=C[C@H](C)[C@H](OC)COC(=O)[C@@H](C)NC(=O)CC=C[C@@H]1C	0.777
CC(C)=NO[C@@H](C)c1cn([C@H](CO)Cc2ccccc2)nn1	0.393
CC(C)=CCCC(C)=CCON=C1C[C@@H](O)[C@@H](O)[C@@H]2[C@@H]3C(=O)N([C@@H](C)c4ccccc4)C(=O)[C@@H]3CC[C@@H]12	0.461
COc1ccc(-c2cnnc(CCCn3ccnc3-c3ccccc3)n2)cc1	0.7

Sure, the documented composite z-score for `O=C1[C@H]2[C@H]3[C@H](O)[C@H](O)CC(=NOC[C@@H](O)COCc4ccco4)[C@@H]3CC[C@H]2C(=O)N1Cc1ccc2c(c1)OCO2` is -0.454

response.value for CCOC(=O)[C@H](Cc1ccccc1)NC(=O)CCC1CC(OC(=O)NCc2ccc3c(c2)OCO3)CC2(CCCC(COC(=O)NCCCN3CCCC3=O)O2)O1 (stereo partly specified) (field: composite z-score) = 0.573

The reported composite z-score of the molecule `COc1ccc(OC[C@@H](CO)OC)cc1` was 0.428

Record summary for COC(=O)[C@H](C)NC(=O)CCC1CC(OC(=O)NCc2cccc3ccccc23)CC2(CCCC(COC(=O)NCCOc3ccccc3)O2)O1 (stereo partly specified) : reported composite z-score = 0.411

composite z-score reading for `COc1ccc(COC(=O)NN=C2C[C@@H](O)[C@@H](O)[C@@H]3[C@@H]4C(=O)N(C[C@@H]5CCCO5)C(=O)[C@@H]4CC[C@@H]23)cc1` : 1.01

`CO[C@H]1COC(=O)CC=C[C@@H](C)COC(=O)[C@H]2CCCN2C(=O)CC=C[C@H]1C` has a reported composite z-score of 0.756

* * *

Test: anti-His antibody binders, primary screen, artefact control for SMM control protein annotation, biochemical, small-molecule microarray, 635 nm fluorescence (AID 1128);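 further: score merges feature fluorescence with signal-to-noise for each printed compound spot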
Conditions: anti-His Alexa647 antibody binding, higher = more signal
Param threshold (0.7) applies to composite z-score; output MET when value >= threshold, NOT MET when value < threshold.

Completed entries (count: 3):
CO[C@@H]1COC(=O)[C@@H]2CCCN2C(=O)[C@@H](C)COC(=O)CCC[C@H]1C	NOT MET
O=C1[C@H]2[C@H]3[C@H](O)[C@H](O)CC(=NOC[C@@H](O)COCc4ccco4)[C@@H]3CC[C@H]2C(=O)N1C1CCCCC1	NOT MET
COC(=O)CC=C[C@@H](C)[C@@H](C=NOC[C@@H](C)[C@H](OCc1ccccc1)C(C)C)OC	MET

q: Tell me whether composite z-score is at least 0.7 here: `COC(=O)[C@@H]1CC[C@H](C)[C@@H](c2ccc(C)cc2)N1C(=O)c1ccc(C=NOC[C@@H](O)[C@H]2O[C@@H]3OC(C)(C)O[C@@H]3[C@H]2O)cc1`
a: NOT MET

q: Is composite z-score for O=C(NCCC[N+]1=CC=NC1c1ccccc1)N1CCCc2nc(-c3ccc(Br)cc3)ccc21 (configuration not stated) at or above 0.7?
a: MET

q: State whether the measured composite z-score reaches 0.7, counting equality as reaching it, for CCOC(=O)[C@H](Cc1ccccc1)NC(=O)CCC1CC(OC(=O)NCc2cccc3ccccc23)CC2(CCCC(COC(=O)NCC3CCCCC3)O2)O1 (some centres not stated)
a: MET

* * *

Target: Torsin-1A-interacting protein 2 (Homo sapiens) (UniProt Q8NFQ8)
Sequence (Q8NFQ8 whole entry, looked up): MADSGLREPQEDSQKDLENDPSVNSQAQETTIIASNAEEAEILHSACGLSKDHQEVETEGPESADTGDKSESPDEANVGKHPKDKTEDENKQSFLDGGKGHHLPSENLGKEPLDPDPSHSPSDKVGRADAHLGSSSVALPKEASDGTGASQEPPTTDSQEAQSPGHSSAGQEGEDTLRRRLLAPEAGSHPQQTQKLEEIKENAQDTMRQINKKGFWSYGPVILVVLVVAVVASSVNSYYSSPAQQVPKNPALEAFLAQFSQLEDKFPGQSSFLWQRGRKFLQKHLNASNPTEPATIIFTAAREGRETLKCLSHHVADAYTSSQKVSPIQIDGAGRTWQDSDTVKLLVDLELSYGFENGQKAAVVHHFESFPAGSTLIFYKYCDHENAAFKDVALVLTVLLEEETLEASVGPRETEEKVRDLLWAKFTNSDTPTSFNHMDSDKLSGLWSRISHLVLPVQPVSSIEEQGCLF
Test: LULL1 binders on small-molecule microarray, primary screen, cell lysate, human LULL1 lysate, 635/667 nm fluorescence (AID 1092);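 further: probe is lysate of COS7 cells overexpressing human LULL1; score merges per-feature 667 nm fluorescence with signal-to-noise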
Details: hLULL1 lysate binding, 635 nm fluorescence, higher = more signal
# binning rule on composite z-score: 0 (below 0.4), 1 (0.4 to below 1), 2 (1 or more)

COc1ccc(COC(=O)NN=C2C[C@@H](O)[C@@H](O)[C@@H]3[C@@H]4C(=O)N([C@@H](C)c5ccccc5)C(=O)[C@@H]4CC[C@H]23)cc1	1
O=C1[C@H]2[C@H]3[C@H](O)[C@H](O)CC(=NOCc4ccccc4)[C@H]3CC[C@H]2C(=O)N1C1CCCCC1	2
CC(C)=CCCC(C)=CCON=C1C[C@@H](O)[C@@H](O)[C@@H]2[C@@H]3C(=O)N(Cc4ccc5c(c4)OCO5)C(=O)[C@@H]3CC[C@H]12	2
CO[C@H]1COC(=O)[C@H](CCSC)NC(=O)CC=C[C@@H](C)[C@H](OC)COC(=O)[C@@H](OCc2ccccc2)C=C[C@@H]1C	0
COC(=O)[C@@H]1CC[C@H](C)[C@@H](c2ccc(Br)cc2)N1C(=O)C(F)(F)F	2

q: Category of `CSCC[C@@H]1NC(=O)CC=C[C@@H](C)COC(=O)[C@H](C)COC1=O` , please.
a: 0

q: Please report the category associated with `C[C@H]1CC[C@@H](C(=O)O)N[C@@H]1c1ccc(C#Cc2ccccc2)cc1` , nothing else.
a: 2

q: For the record `O=C(NN=C1C[C@@H](O)[C@@H](O)[C@@H]2[C@@H]3C(=O)N(c4ccc(F)cc4F)C(=O)[C@@H]3CC[C@H]12)OCc1ccccc1` , report the class its composite z-score corresponds to.
a: 2

q: Which composite z-score category applies to `CC(CCN1CCCc2nc(C)c(C)cc21)=NO[C@@H](C)c1cn([C@H](CO)Cc2ccccc2)nn1` here?
a: 1

q: # bin lookup: classify `CCOC(=O)CCN1C(=O)[C@H]2[C@H]3[C@H](O)[C@H](O)CC(=NNC(=O)OCc4ccc(OC)cc4)[C@H]3CC[C@H]2C1=O` by its composite z-score
a: 0

q: Returns: class label. Input: `C=CC[C@@H]1C=C[C@H](Oc2ccc(C)cc2)[C@@H](COC(=O)NCc2cccc3ccccc23)O1`
a: 1

q: Kindly state the category for this molecule: `CC(CCN1CCCCc2nc(C)c(C)cc21)=NO[C@H](C)c1cn([C@@H]2COC[C@H]2O)nn1`
a: 1

q: Given `C#CCCCON=C1C[C@@H](O)[C@@H](O)[C@@H]2[C@@H]3C(=O)N(C[C@@H]4CCCO4)C(=O)[C@@H]3CC[C@@H]12` , name the class its composite z-score places it in.
a: 0

q: // bin(item) where item = `CC(C)=CCCC(C)=CCON=C1C[C@@H](O)[C@@H](O)[C@@H]2[C@@H]3C(=O)N(C4CCCCC4)C(=O)[C@@H]3CC[C@H]12`
a: 0

q: Lab log: `C[C@H]1CC[C@H]2C(=O)O[C@H](CO)CN2[C@@H]1c1ccc(Br)cc1` — assign composite z-score category
a: 0

q: Hi there! Could you help me figure out the category for `CON=C1c2cc(OC)ccc2O[C@H](c2cccc(OC)c2)[C@H]1O` please?
a: 0
